System: Rattus norvegicus
assayDetails: In vivo antiinflammatory activity in Fisher 344 rat assessed as inhibition of carrageenan-induced paw edema at 0.01 mmol/kg, ip administered simultaneously with carrageenan measured after 3.5 hrs
Format: functional
cond: Fisher 344, ip
valueType: inhibition in vivo at 10 µmol/kg (%)
Number in %, nothing else.

Some molecules with known inhibition in vivo at 10 µmol/kg results, for comparison:
NCCNC(=O)c1c(O)c2ccccc2oc1=O ... 59
COc1ccc2c(c1)c(CC(=O)O)c(C)n2C(=O)c1ccc(Cl)cc1 ... 47
NCCCCCCCCNC(=O)c1c(O)c2ccccc2oc1=O ... 48
O=C(CCCCC1CCSS1)NCCCCCCCCNC(=O)c1c(O)c2ccccc2oc1=O (configuration not stated) ... 43
CCOC(=O)c1c(O)oc2ccccc2c1=O ... 63
Cc1ccc2oc(=O)c(C(=O)NCCN)c(O)c2c1 ... 59
O=C(O)CCCCC1CCSS1 (configuration not stated) ... 29.6
CCOC(=O)c1c(O)c2cc(C)ccc2oc1=O ... 41

Ask: Assign inhibition in vivo at 10 µmol/kg to the following record: NCCCCCCNC(=O)c1c(O)oc2ccccc2c1=O
Result: 49

Ask: Determine from records and report inhibition in vivo at 10 µmol/kg for Nc1ccccc1NC(=O)c1c(O)c2ccccc2oc1=O
Result: 57

Ask: Report measured inhibition in vivo at 10 µmol/kg; entry is Cc1ccc2oc(=O)c(C(=O)Nc3ccccc3N)c(O)c2c1
Result: 60

Ask: Provide one value: measured inhibition in vivo at 10 µmol/kg of Cc1ccc2oc(=O)c(C(=O)NCCCCCCCCN)c(O)c2c1
Result: 59
